Taken from patent US12318403B2.

Listed here: items and their measured log10 EC50.
# Tested on: peripheral blood mononuclear cell (PBMC)
# assay-procedure: Peripheral blood mononuclear cell assay
# protocol-conditions: read-out: PBMC EC50 IFN-α; compounds 1h, washed, 15 hour incubation; interferon-alpha level in medium; average of one to four donors
quantity-kind: log10 EC50 (log10 of the value in nM)

{"compound": "CC(C)(C)C(=O)OCOP1(=O)CO[C@H]2[C@@H](F)[C@H](n3cnc4c(N)ncnc43)O[C@@H]2COP(=O)(OCOC(=O)C(C)(C)C)O[C@@H]2[C@H](F)[C@@H](CO1)O[C@H]2n1cnc2c(=O)[nH]cnc21 (single isomer, unassigned) [Compound 77c]", "system-name": "peripheral blood mononuclear cell (PBMC)", "log10 EC50": 2.85}
{"compound": "CCCCCCCC(=O)OCSP1(=O)OC[C@H]2O[C@@H](n3cnc4c(N)ncnc43)[C@H](F)[C@@H]2OCP(=O)(O)OC[C@H]2O[C@@H](n3cnc4c(=O)[nH]cnc43)[C@H](O1)[C@@H]2F (some centres unmarked) [Compound 63b]", "system-name": "peripheral blood mononuclear cell (PBMC)", "log10 EC50": 3.95}
{"compound": "CCCCCC(=O)Oc1ccc(C(=O)Oc2ccc(CSP3(=O)OC[C@H]4O[C@@H](n5cnc6c(N)ncnc65)[C@H](F)[C@@H]4OCP(=O)(O)OC[C@H]4O[C@@H](n5cnc6c(=O)[nH]c(N)nc65)[C@H](O3)[C@@H]4F)cc2)cc1 (single isomer, unassigned) [Compound 40b]", "system-name": "peripheral blood mononuclear cell (PBMC)", "log10 EC50": 3.91}
{"compound": "CCCCCCCCCCCCCCCCCCOC(=O)OCSP1(=O)OC[C@H]2O[C@@H](n3cnc4c(N)ncnc43)[C@H](F)[C@@H]2OCP(=O)(O)OC[C@H]2O[C@@H](n3cnc4c(=O)[nH]cnc43)[C@H](O1)[C@@H]2F (some centres unmarked) [Compound 74b]", "system-name": "peripheral blood mononuclear cell (PBMC)", "log10 EC50": 3.34}
{"compound": "CCCCCCCCCCCCCCCC(=O)OCSP1(=O)OC[C@H]2O[C@@H](n3cnc4c(N)ncnc43)[C@H](F)[C@@H]2OCP(=O)(O)OC[C@H]2O[C@@H](n3cnc4c(=O)[nH]cnc43)[C@H](O1)[C@@H]2F (single isomer, unassigned) [Compound 64b]", "system-name": "peripheral blood mononuclear cell (PBMC)", "log10 EC50": 3.15}
{"compound": "CCCCCCCCCCCC(=O)OCSP1(=O)OC[C@H]2O[C@@H](n3cnc4c(N)ncnc43)[C@H](F)[C@@H]2OCP(=O)(O)OC[C@H]2O[C@@H](n3cnc4c(=O)[nH]cnc43)[C@H](O1)[C@@H]2F (single isomer, unassigned) [Compound 56a]", "system-name": "peripheral blood mononuclear cell (PBMC)", "log10 EC50": 3.20}
{"compound": "CCCCCCCCCCCC(=O)OCSP1(=O)CO[C@H]2[C@@H](F)[C@H](n3cnc4c(N)ncnc43)O[C@@H]2COP(=O)(SCOC(=O)CCCCCCCCCCC)O[C@@H]2[C@H](F)[C@@H](CO1)O[C@H]2n1cnc2c(=O)[nH]c(N)nc21 (single isomer, unassigned) [Compound 78d]", "system-name": "peripheral blood mononuclear cell (PBMC)", "log10 EC50": 3.53}
{"compound": "CCCCCCCCCCCC(=O)OCOP1(=O)CO[C@H]2[C@@H](F)[C@H](n3cnc4c(N)ncnc43)O[C@@H]2COP(=O)(OCOC(=O)CCCCCCCCCCC)O[C@@H]2[C@H](F)[C@@H](CO1)O[C@H]2n1cnc2c(=O)[nH]cnc21 (single isomer, unassigned) [Compound 79c]", "system-name": "peripheral blood mononuclear cell (PBMC)", "log10 EC50": 2.00}

* * *

# system-name: AQ human STING (G230A-R293Q) (Homo sapiens, UniProt Q86WV6, G230A/H232R/R293Q)
# Construct: truncated human WT STING or AQ STING (amino acid residues 140-343); 8xHis (N, cleaved yes); SUMO (N, cleaved yes); made in house; host or cells: E. coli Rosetta-gami B (DE3)
# Sequence (Q86WV6 140-343 G230A/H232R/R293Q): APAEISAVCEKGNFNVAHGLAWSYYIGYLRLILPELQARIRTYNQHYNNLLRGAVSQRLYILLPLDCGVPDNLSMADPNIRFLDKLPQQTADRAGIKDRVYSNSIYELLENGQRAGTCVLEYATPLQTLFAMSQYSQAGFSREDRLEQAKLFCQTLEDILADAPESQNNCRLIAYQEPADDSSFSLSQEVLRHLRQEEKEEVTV
# assay-procedure: Differential Scanning Fluorimetry with AQ STING
# Assay type: binding
# protocol-conditions: thermal shift vs STING apoprotein; 150 μM CDN; truncated AQ STING (residues 140-343)
quantity-kind: DSF ΔTm AQ STING (°C)

{"molecule": "Nc1ncnc2c1ncn2[C@@H]1O[C@@H]2COP(=O)(O)O[C@H]3[C@@H](O)[C@H](n4cnc5c(N)ncnc54)O[C@@H]3COP(=O)(O)O[C@H]2[C@H]1O [3′3′-c-di-AMP, reference compound]", "measured-value": 9.0}
{"molecule": "Nc1nc2c(ncn2[C@@H]2O[C@@H]3COP(=O)(S)CO[C@H]4[C@@H](F)[C@H](n5cnc6c(N)ncnc65)O[C@@H]4COP(=O)(O)O[C@@H]2[C@@H]3F)c(=O)[nH]1 (single isomer, unassigned) [Compound 15b]", "measured-value": 27.0}
{"molecule": "Nc1nc2c(ncn2[C@@H]2O[C@@H]3COP(=O)(S)CO[C@H]4[C@@H](F)[C@H](n5cnc6c(N)ncnc65)O[C@@H]4COP(=O)(S)O[C@@H]2[C@@H]3F)c(=O)[nH]1 (single isomer, unassigned) [Compound 17d]", "measured-value": 27.6}
{"molecule": "Nc1nc2c(ncn2[C@@H]2O[C@@H]3COP(=O)(S)CO[C@H]4[C@@H](F)[C@H](n5cnc6c(N)ncnc65)O[C@@H]4COP(=O)(S)O[C@@H]2[C@@H]3F)c(=O)[nH]1 (single isomer, unassigned) [Compound 17c]", "measured-value": 25.4}
{"molecule": "Nc1ncnc2c1ncn2[C@@H]1O[C@@H]2COP(=O)(S)O[C@@H]3[C@H](F)[C@@H](COP(=O)(O)CO[C@H]2[C@H]1F)O[C@H]3n1cnc2c(=O)[nH]cnc21 (single isomer, unassigned) [Compound 13a]", "measured-value": 21.8}
{"molecule": "Nc1nc2c(ncn2[C@@H]2O[C@@H]3COP(=O)(O)CO[C@H]4[C@@H](F)[C@H](n5cnc6c(N)ncnc65)O[C@@H]4COP(=O)(S)O[C@@H]2[C@@H]3F)c(=O)[nH]1 (single isomer, unassigned) [Compound 11a]", "measured-value": 23.1}
{"molecule": "Nc1nc2c(ncn2[C@@H]2O[C@@H]3COP(=O)(S)CO[C@H]4[C@@H](F)[C@H](n5cnc6c(N)ncnc65)O[C@@H]4COP(=O)(S)O[C@@H]2[C@@H]3F)c(=O)[nH]1 (single isomer, unassigned) [Compound 17a]", "measured-value": 14.3}
{"molecule": "Nc1ncnc2c1ncn2[C@@H]1O[C@@H]2COP(=O)(S)O[C@@H]3[C@H](F)[C@@H](COP(=O)(O)CO[C@H]2[C@H]1F)O[C@H]3n1cnc2c(=O)[nH]cnc21 (single isomer, unassigned) [Compound 13b]", "measured-value": 26.0}
{"molecule": "Nc1nc2c(ncn2[C@@H]2O[C@@H]3COP(=O)(S)CO[C@H]4[C@@H](F)[C@H](n5cnc6c(N)ncnc65)O[C@@H]4COP(=O)(O)O[C@@H]2[C@@H]3F)c(=O)[nH]1 (single isomer, unassigned) [Compound 15a]", "measured-value": 19.7}

* * *

# system-name: human wild type STING (WT STING) (Homo sapiens, UniProt Q86WV6, H232R)
# Sequence (Q86WV6 whole entry H232R): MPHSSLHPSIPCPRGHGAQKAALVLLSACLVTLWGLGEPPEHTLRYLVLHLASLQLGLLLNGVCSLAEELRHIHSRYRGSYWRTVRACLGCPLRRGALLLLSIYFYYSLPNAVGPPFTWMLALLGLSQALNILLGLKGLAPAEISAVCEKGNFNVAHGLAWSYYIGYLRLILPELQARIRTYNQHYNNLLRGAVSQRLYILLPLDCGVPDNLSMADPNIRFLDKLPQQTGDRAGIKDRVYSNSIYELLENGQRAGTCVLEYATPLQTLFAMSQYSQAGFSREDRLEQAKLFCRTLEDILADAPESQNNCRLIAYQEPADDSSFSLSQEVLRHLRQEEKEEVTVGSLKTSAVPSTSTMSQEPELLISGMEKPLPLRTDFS
# assay-procedure: 293T WT STING standard reporter assay
# Format: cell-based
# protocol-conditions: 293T WT STING EC50, 293T wtSTING-FL cells; standard reporter assay without digitonin; 7 hours; ISRE firefly luciferase
Listed here: items and their measured EC50.
quantity-kind: EC50 (nM)

{"compound": "CCCCCCCC(=O)OCSP1(=O)CO[C@H]2[C@@H](F)[C@H](n3cnc4c(N)ncnc43)O[C@@H]2COP(=O)(SCOC(=O)CCCCCCC)O[C@@H]2[C@H](F)[C@@H](CO1)O[C@H]2n1cnc2c(=O)[nH]c(N)nc21 (stereo partly shown) [Compound 69b]", "system-name": "human wild type STING (WT STING) (Homo sapiens, UniProt Q86WV6, H232R)", "quantity-kind": "EC50", "measured-value": 200}
{"compound": "CCCCCCCC(=O)Oc1ccc(CSP2(=O)CO[C@H]3[C@@H](F)[C@H](n4cnc5c(N)ncnc54)O[C@@H]3COP(=O)(O)O[C@@H]3[C@H](F)[C@@H](CO2)O[C@H]3n2cnc3c(=O)[nH]c(N)nc32)cc1 (single isomer, unassigned) [Compound 45a]", "system-name": "human wild type STING (WT STING) (Homo sapiens, UniProt Q86WV6, H232R)", "quantity-kind": "EC50", "measured-value": 300}
{"compound": "CCCCCCCCCC(=O)Oc1ccc(CSP2(=O)CO[C@H]3[C@@H](F)[C@H](n4cnc5c(N)ncnc54)O[C@@H]3COP(=O)(O)O[C@@H]3[C@H](F)[C@@H](CO2)O[C@H]3n2cnc3c(=O)[nH]c(N)nc32)cc1 (single isomer, unassigned) [Compound 46a]", "system-name": "human wild type STING (WT STING) (Homo sapiens, UniProt Q86WV6, H232R)", "quantity-kind": "EC50", "measured-value": 60}
{"compound": "CC(C)(C)C(=O)Oc1ccc(CSP2(=O)CO[C@H]3[C@@H](F)[C@H](n4cnc5c(N)ncnc54)O[C@@H]3COP(=O)(O)O[C@@H]3[C@H](F)[C@@H](CO2)O[C@H]3n2cnc3c(=O)[nH]c(N)nc32)cc1 (single isomer, unassigned) [Compound 43b]", "system-name": "human wild type STING (WT STING) (Homo sapiens, UniProt Q86WV6, H232R)", "quantity-kind": "EC50", "measured-value": 3100}
